Tested on: Staphylococcus epidermidis
Test: Antibacterial activity against methicillin-sensitive Staphylococcus epidermidis isolate 12-3
Format: functional
Rule for this label: t means MIC is less than 0.5 µg/mL; f means MIC is at least 0.5 µg/mL.

Exam item: Record CO/N=C1\CN(c2c(F)cc3c(=O)c(C(=O)O)cn(C4CC4)c3c2OC)CCC1N (centres undefined) : is its MIC strictly below 0.5 µg/mL?
Marked response: t

Exam item: Record O=C(O)c1cn(C2CC2)c2cc(N3CCNCC3)c(F)cc2c1=O [CIPROFLOXACIN] : is its MIC strictly below 0.5 µg/mL?
Marked response: t

Exam item: Record CNC1CCN(c2ccc3c(=O)c(C(=O)O)cn(C4CC4)c3n2)C/C1=N\OC (centres undefined) : is its MIC strictly below 0.5 µg/mL?
Marked response: f

Exam item: Record CCO/N=C1\CN(c2nc3c(cc2F)c(=O)c(C(=O)O)cn3C2CC2)CCC1NC (centres undefined) : is its MIC strictly below 0.5 µg/mL?
Marked response: f

Exam item: Record O=C1NC2CCN(c3nc4c(cc3F)c(=O)c(C(=O)O)cn4C3CC3)CC2O1 (centres undefined) : is its MIC strictly below 0.5 µg/mL?
Marked response: f
